All values here come from PubChem BioAssay.

# assay_name: cell viability in Huh7 cells, primary screen, cytotoxicity control for HCV replication inhibitor project, CellTiter-Glo luminescence, basal, 48 h (AID 1143);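 also: Huh7 hepatoma cells carrying a hepatitis C replication reporter with no stimulus; test concentration not given here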
# condition_info: Huh7 HCV replicon, higher = more signal, called active from +8 up or from −8 down
Tag: yes if measured z-score is not below -0.5, no if it is.

IN: API: above_or_equal(metric=z-score, cutoff=-0.5) for item CC(=O)O[C@H]1C2=CO[C@H](C)[C@H]3[C@H]4C5=C([C@H](O)[C@H]6O[C@H]6C5=O)[C@H](OC4C)[C@@]23C(=O)[C@@H]2O[C@@H]21 (stereo not given in full)
OUT: no

IN: API: above_or_equal(metric=z-score, cutoff=-0.5) for item CCc1cc2c(nc1CC)CCN(CCC(C)=NOC[C@H]1O[C@H](c3ccccc3)C=C[C@@H]1Oc1ccc(OC)cc1)C2
OUT: no

IN: API: above_or_equal(metric=z-score, cutoff=-0.5) for item CC(=O)Nc1ccc([C@@H]2N[C@H](C(=O)O)CC[C@H]2C)cc1
OUT: yes

IN: API: above_or_equal(metric=z-score, cutoff=-0.5) for item CC(C)(C)N1C(=O)[C@H]2[C@H]3[C@H](O)[C@H](O)CC(=O)[C@@H]3CC[C@H]2C1=O
OUT: no

IN: API: above_or_equal(metric=z-score, cutoff=-0.5) for item CON=C(C)CCC(=O)OC[C@H]1O[C@H](c2ccccc2)C=C[C@@H]1Oc1ccc(OC)cc1
OUT: no

IN: API: above_or_equal(metric=z-score, cutoff=-0.5) for item CCOC(=O)[C@H](Cc1ccccc1)NC(=O)CCC1CC(OC(=O)NCCc2ccc(F)cc2)CC2(CCCC(COC(=O)NCCc3ccccc3OC)O2)O1 (stereo not given in full)
OUT: yes

IN: API: above_or_equal(metric=z-score, cutoff=-0.5) for item COC(=O)CC=C[C@@H](C)[C@@H](C=NOC[C@@H](O)[C@H]1O[C@@H]2OC(C)(C)O[C@@H]2[C@H]1O)NS(=O)(=O)c1ccc(C)cc1
OUT: yes

IN: API: above_or_equal(metric=z-score, cutoff=-0.5) for item CC(=O)OC[C@H]1O[C@H](CC=NO[C@H](C)c2cn([C@H](CO)Cc3ccccc3)nn2)C=C[C@@H]1OC(C)=O
OUT: yes

IN: API: above_or_equal(metric=z-score, cutoff=-0.5) for item CC(=O)OC[C@H]1O[C@@H](ON=C(C)CCN2CCCc3nc(C)c(C)cc32)[C@H](OC(C)=O)[C@@H](OC(C)=O)[C@@H]1OC(C)=O
OUT: no

IN: API: above_or_equal(metric=z-score, cutoff=-0.5) for item O=C1C2=CC[C@H]3C(=O)N(c4cccc(Oc5ccccc5)c4)C(=O)[C@H]3[C@H]2[C@H](O)[C@@H]2O[C@H]12
OUT: no

IN: API: above_or_equal(metric=z-score, cutoff=-0.5) for item CCOC(=O)[C@H](Cc1ccccc1)NC(=O)OC1CC(CCC2CC(CC)=NO2)OC2(CCCC(COC(=O)NCCC(C)C)O2)C1 (stereo not given in full)
OUT: yes

IN: API: above_or_equal(metric=z-score, cutoff=-0.5) for item CCOC(=O)NN=C1C[C@@H](O)[C@@H](O)[C@@H]2[C@@H]3C(=O)N(c4cccc(Oc5ccccc5)c4)C(=O)[C@@H]3CC[C@H]12
OUT: no

IN: API: above_or_equal(metric=z-score, cutoff=-0.5) for item CON=C[C@@H](C)[C@H](OCc1ccccc1)C(C)C
OUT: no

IN: API: above_or_equal(metric=z-score, cutoff=-0.5) for item C#CCCCON=C1C[C@@H](O)[C@@H](O)[C@@H]2[C@@H]3C(=O)N(c4ccc(F)cc4F)C(=O)[C@@H]3CC[C@@H]12
OUT: yes

IN: API: above_or_equal(metric=z-score, cutoff=-0.5) for item CC(C)C[C@H](NC(=O)CCC1CC(OC(=O)NCc2cccc3ccccc23)CC2(CCCC(COC(=O)NCc3ccccc3)O2)O1)C(=O)NCC(c1ccccc1)c1ccccc1 (stereo not given in full)
OUT: yes

* * *

# tested_on: NADPH oxidase 2 (Homo sapiens) (UniProt P04839)
# Sequence (P04839 whole entry, looked up): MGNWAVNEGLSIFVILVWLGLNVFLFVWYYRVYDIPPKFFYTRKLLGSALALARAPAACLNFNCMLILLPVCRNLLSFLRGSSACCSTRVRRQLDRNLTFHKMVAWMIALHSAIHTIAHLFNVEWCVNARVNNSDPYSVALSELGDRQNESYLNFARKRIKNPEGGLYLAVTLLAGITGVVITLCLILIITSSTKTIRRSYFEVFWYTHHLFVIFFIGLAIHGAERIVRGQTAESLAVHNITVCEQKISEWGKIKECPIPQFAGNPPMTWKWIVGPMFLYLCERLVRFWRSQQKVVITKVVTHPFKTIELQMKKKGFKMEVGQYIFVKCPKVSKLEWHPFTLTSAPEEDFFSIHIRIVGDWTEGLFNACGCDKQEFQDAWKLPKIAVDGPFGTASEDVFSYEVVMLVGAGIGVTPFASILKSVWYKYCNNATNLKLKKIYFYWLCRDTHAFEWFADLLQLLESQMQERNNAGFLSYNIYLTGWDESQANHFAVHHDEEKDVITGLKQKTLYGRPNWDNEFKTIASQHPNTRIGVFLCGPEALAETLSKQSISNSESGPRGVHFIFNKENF
# assay_name: NOX2-dependent H2O2 signal modulators, primary screen, NOX inhibitor project, cell-based, HEK293-NOX2, PMA-stimulated, Amplex Red fluorescence (AID 1159); also: test concentration not given here
# condition_info: 45 min, higher = more signal, called active from +8 up or from −8 down
Calls of active or inactive are those of the source.
endpoint: z-score

IN: I would be grateful if you could share the reported z-score for O=C1OCCC=C1C(O)CCc1ccccc1 (stereo unspecified) .
OUT: -0.428 (inactive)

IN: I would be grateful if you could share the reported z-score for COC(=O)CC=C[C@@H](C)[C@@H]1C=C[C@H](O)[C@@H](CO)O1 .
OUT: 0.418 (inactive)

IN: I would be grateful if you could share the reported z-score for COc1cccc([C@@H]2Oc3ccc(OC)cc3C(=O)[C@H]2O)c1 .
OUT: -2.25 (inactive)

IN: I would be grateful if you could share the reported z-score for CC(C)=CCCC(C)=CCON=C1C[C@@H](O)[C@@H](O)[C@@H]2[C@@H]3C(=O)N(Cc4ccccc4)C(=O)[C@@H]3CC[C@H]12 .
OUT: 1.51 (inactive)

IN: I would be grateful if you could share the reported z-score for CCOC(=O)[C@H](CC(C)C)NC(=O)CCC1CC(OC(=O)NCc2cccc3ccccc23)CC2(CCCC(COC(=O)NCCc3ccc(Cl)cc3)O2)O1 (stereo partly specified) .
OUT: 0.274 (inactive)

IN: I would be grateful if you could share the reported z-score for CCOC(=O)C1=NO[C@@]2(C=C(Br)C3(OCCCO3)[C@H]3O[C@H]32)C1 .
OUT: 0.925 (inactive)

IN: I would be grateful if you could share the reported z-score for COc1cccc([C@H]2Oc3ccc(OC)cc3C(=NOC[C@@H](C)[C@H](OCc3ccccc3)C(C)C)[C@@H]2O)c1 .
OUT: -0.364 (inactive)

IN: I would be grateful if you could share the reported z-score for COc1cccc([C@H]2Oc3ccc(OC)cc3C(=NO[C@@H](C)c3cn([C@H](CO)Cc4ccccc4)nn3)[C@@H]2O)c1 .
OUT: -0.0734 (inactive)

IN: I would be grateful if you could share the reported z-score for CCOC(=O)NN=C1C[C@@H](O)[C@@H](O)[C@@H]2[C@@H]3C(=O)N(c4cccc(Oc5ccccc5)c4)C(=O)[C@@H]3CC[C@H]12 .
OUT: -0.515 (inactive)

IN: I would be grateful if you could share the reported z-score for CCOC(=O)C1=NO[C@]2(C=C(Br)C3(OCCCO3)[C@H]3O[C@H]32)C1 .
OUT: 1.18 (inactive)

IN: I would be grateful if you could share the reported z-score for CON=Cc1ccc(C(=O)N2[C@H](c3ccc(C)cc3)[C@@H](C)CC[C@H]2C(=O)OC)cc1 .
OUT: -0.88 (inactive)

IN: I would be grateful if you could share the reported z-score for CC(C)=CCCC(C)=CCON=C1C[C@@H](O)[C@@H](O)[C@@H]2[C@@H]3C(=O)N(c4ccc(F)cc4F)C(=O)[C@@H]3CC[C@H]12 .
OUT: -0.0501 (inactive)

IN: I would be grateful if you could share the reported z-score for COc1cccc([C@H]2Oc3ccc(OC)cc3C(=NO[C@H](C)c3cn([C@H](CO)Cc4ccccc4)nn3)[C@@H]2O)c1 .
OUT: -0.809 (inactive)

IN: I would be grateful if you could share the reported z-score for COC(=O)CC=C[C@@H](C)[C@@H](C=NOC[C@@H](O)[C@H]1O[C@@H]2OC(C)(C)O[C@@H]2[C@H]1O)NS(=O)(=O)c1ccc(C)cc1 .
OUT: 0.214 (inactive)

IN: I would be grateful if you could share the reported z-score for CC(C)=NOC[C@@H](C)[C@H](OCc1ccccc1)C(C)C .
OUT: 0.409 (inactive)

IN: I would be grateful if you could share the reported z-score for O=C(NN=C1C[C@@H](O)[C@@H](O)[C@@H]2[C@@H]3C(=O)N(C4CCCCC4)C(=O)[C@@H]3CC[C@@H]12)OCc1ccccc1 .
OUT: -0.457 (inactive)

* * *

Assignment: determine reported composite z-score for the given compounds.
# assay_name: binders of probe aFSTL3 on microarray, primary screen, stem cell growth factor project, biochemical, small-molecule microarray, fluorescence 635/667 (AID 1064);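 also: measures binding of the biotinylated anti-FSTL3 antibody to printed compounds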
# condition_info: higher = more signal
Response field accepts a number only; no unit should be typed.

IN: I would be grateful if you could share the reported composite z-score for CCOC(=O)[C@H](CC(C)C)NC(=O)CCC1CC(OC(=O)NCCc2ccc(F)cc2)CC2(CCCC(COC(=O)NCCC(C)C)O2)O1 (some centres not stated) .
OUT: -0.44

IN: I would be grateful if you could share the reported composite z-score for COC(=O)CC=C[C@@H](C)[C@@H](C=NOC(C)CN1CCCc2nc(C)c(C)cc21)OC (some centres not stated) .
OUT: -0.111

IN: I would be grateful if you could share the reported composite z-score for O=C1CCCC(C2=CCCCC2=O)C1 (configuration not stated) .
OUT: -0.31

IN: I would be grateful if you could share the reported composite z-score for CCOC(=O)[C@H](CC(C)C)NC(=O)CCC1CC(OC(=O)NCCc2ccc(F)cc2)CC2(CCCC(COC(=O)NCC(c3ccccc3)c3ccccc3)O2)O1 (some centres not stated) .
OUT: -0.65

IN: I would be grateful if you could share the reported composite z-score for CCOC(=O)NN=C1C[C@@H](O)[C@@H](O)[C@@H]2[C@@H]3C(=O)N([C@@H](C)c4ccccc4)C(=O)[C@@H]3CC[C@H]12 .
OUT: -0.322

IN: I would be grateful if you could share the reported composite z-score for COc1cccc([C@H]2Oc3ccc(OC)cc3C(=NO[C@@H]3O[C@H](COC(C)=O)[C@@H](OC(C)=O)[C@H](OC(C)=O)[C@H]3OC(C)=O)[C@@H]2O)c1 .
OUT: -0.533

IN: I would be grateful if you could share the reported composite z-score for CC(C)(C)N1C(=O)[C@H]2[C@H]3[C@H](O)[C@H](O)CC(=O)[C@H]3CC[C@H]2C1=O .
OUT: -0.635
